protocol: Drug repurposing screens with cells derived from glioblastoma tumor samples (AID 1345199); further: on the % scale 0 is the no-effect control and ±100 the full control effect
condition.description: GBM patient neurospheres viability, ATP luminescence, 48 h; at 45.9 µM (top of the series); tumour line B
Results filed as inconclusive are left out.
Kindly state activity, negative = cell killing for each of the entries shown.
One number for each entry, in %.

Example cases with answers are listed next.
NC(=O)N[C@@H](CCC(=O)O)C(=O)O = -6.35
O[C@@H]1CO[C@H]2[C@@H]1OC[C@@H]2O = -8.03

Quick batch: activity, negative = cell killing for everything below.
1. Nc1ccncc1N
2. N[C@@H](Cc1ccc(O)cc1)C(=O)O
3. CC1CC(OC(=O)c2ccccc2O)CC(C)(C)C1 (centres undefined)
4. CC(=O)Oc1cccc(O)c1

Key:
1. -7.35
2. -2.51
3. -18.3
4. -1.54
